System: expanded OPCs
Assay: cells
recorded metric: 10 µM (% DMSO)

# compound, test target, measured value
data = [
    ("CN1CCN2c3ncccc3Cc3ccccc3C2C1 (centres unmarked)", "expanded OPCs", 62.7),
    ("C[C@H]1C[C@H]2[C@@H]3CCC4=CC(=O)C=C[C@]4(C)[C@@]3(Cl)[C@@H](O)C[C@]2(C)[C@@]1(O)C(=O)CO", "expanded OPCs", 81.7),
    ("Cl.Cl.O=C(O)COCCN1CCN(C(c2ccccc2)c2ccc(Cl)cc2)CC1 (centres unmarked)", "expanded OPCs", 81.0),
    ("CC1=C(C/C=C(\\C)CCC[C@H](C)CCC[C@H](C)CCCC(C)C)C(=O)c2ccccc2C1=O", "expanded OPCs", 87.4),
    ("CNCC[C@H](Oc1cccc2ccccc12)c1cccs1", "expanded OPCs", 12.6),
]

###

System: expanded OPCs
Assay: cells
Details: alamarBlue viability of expanded OPCs, compound at 10 µM, relative to DMSO control
recorded metric: 10 µM (% DMSO)

# compound, measured value
rows = [
    ("CO[C@H]1/C=C/O[C@@]2(C)Oc3c(C)c(O)c4c(O)c(c(/C=N/N5CCN(C)CC5)c(O)c4c3C2=O)NC(=O)/C(C)=C\\C=C\\[C@H](C)[C@H](O)[C@@H](C)[C@@H](O)[C@@H](C)[C@H](OC(C)=O)[C@@H]1C", 62.3),
    ("CC[C@H](C)C(=O)O[C@H]1C[C@@H](C)C=C2C=C[C@H](C)[C@H](CC[C@@H]3C[C@@H](O)CC(=O)O3)[C@H]21", 46.0),
    ("CCN(CC)CCNC(=O)c1cc(Cl)c(N)cc1OC [Metoclopramide]", 116.8),
]

###

Test system: expanded OPCs
Test: cells
Details: Rattus norvegicus, 72 h, read-out: 10 µM (% DMSO), alamarBlue viability of expanded OPCs, compound at 10 µM, sheet All Tox data
Item-by-item account of viability at 10 µM

# molecule, viability at 10 µM
rows = [
    ("O=c1c(O[C@@H]2O[C@H](CO)[C@@H](O)[C@H](O)[C@H]2O)c(-c2ccc(O)c(O)c2)oc2cc(O)cc(O)c12 [Isoquercitrin]", "101%"),
    ("C#CCN(C)[C@H](C)Cc1ccccc1 [Selegiline]", "91.2%"),
    ("O=C(O)CCc1nc(-c2ccccc2)c(-c2ccccc2)o1 [Oxaprozin]", "78%"),
    ("CC1(C)O[C@@H]2[C@@H](CO[C@@]3(COS(N)(=O)=O)OC(C)(C)O[C@@H]23)O1 [Topiramate]", "86.5%"),
]

###

Test system: expanded OPCs
Assay: cells
Settings: alamarBlue viability of expanded OPCs, compound at 10 µM, relative to DMSO control
Mark label 1 only for 10 µM (% DMSO) values smaller than 60 % DMSO; exact matches and larger values are label 0.

# compound, category label
rows = [
    ("Clc1ccc2nsnc2c1NC1=NCCN1", "label 0"),
    ("NC(=O)c1cnccn1 [Pyrazinamide]", "label 0"),
    ("NS(=O)(=O)c1cc2c(cc1C(F)(F)F)NCNS2(=O)=O [Hydroflumethiazide]", "label 0"),
    ("CN(C)CCC=C1c2ccccc2CCc2ccccc21", "label 1"),
]

###

Item-by-item account of 1 µM (% DMSO)
Test system: expanded OPCs
Test: cells
Conditions: alamarBlue viability of expanded OPCs, compound at 1 µM, relative to DMSO control

# compound, test target, 1 µM (% DMSO)
data = [
    ("CN(C)[C@@H]1C(O)=C(C(N)=O)C(=O)[C@@]2(O)C(O)=C3C(=O)c4c(O)cccc4C[C@H]3C[C@@H]12 [Sancycline]", "expanded OPCs", 89.0),
    ("OCCN1CCN(CCCN2c3ccccc3Sc3ccc(Cl)cc32)CC1 [Perphenazine, reference compound]", "expanded OPCs", 47.1),
    ("COC(=O)[C@H](c1ccccc1Cl)N1CCc2sccc2C1 [Clopidogrel]", "expanded OPCs", 94.8),
    ("NCc1ccc(S(N)(=O)=O)cc1 [Mafenide]", "expanded OPCs", 90.1),
]

###

Tested on: acutely dissociated and purified rat OPCs
Assay: Acute OL differentiation assay (MBP expression/cell, immunofluorescent image quantification)
Type: cell-based
Details: test compound at 10 uM; NCC library screen, sheet "All OLga data"; relative to quetiapine
Structures can show the parent of a compound that is named as a salt.
10 uM (% Quet) of -40 % Quet or higher: Y. Under -40 % Quet: N.

# molecule, category label
measured = [
    ("OC[C@H]1O[C@@H](n2cnc3c(NC4CCCC4)nc(Cl)nc32)[C@H](O)[C@@H]1O", "N"),
    ("N=C(N)N", "Y"),
    ("CC(C)C[C@H](NC(=O)[C@@H](COC(C)(C)C)NC(=O)[C@H](Cc1ccc(O)cc1)NC(=O)[C@H](CO)NC(=O)[C@H](Cc1c[nH]c2ccccc12)NC(=O)[C@H](Cc1cnc[nH]1)NC(=O)[C@@H]1CCC(=O)N1)C(=O)N[C@@H](CCCNC(=N)N)C(=O)N1CCC[C@H]1C(=O)NNC(N)=O", "Y"),
    ("C[C@H]1C[C@H]2[C@@H]3CCC4=CC(=O)C=C[C@]4(C)[C@@]3(Cl)[C@@H](O)C[C@]2(C)[C@@]1(O)C(=O)CO", "Y"),
    ("O=C(O)c1cc2ccccc2c(Cc2c(O)c(C(=O)O)cc3ccccc23)c1O.OCCOCCN1CCN(C(c2ccccc2)c2ccc(Cl)cc2)CC1 [Hydroxyzine pamoate salt]", "Y"),
    ("C[C@]12CC[C@@H]3c4ccc(OS(=O)(=O)O)cc4CC[C@H]3[C@@H]1CCC2=O [Estrone sulfate]", "Y"),
    ("C[C@H]1C[C@H]2[C@@H]3CCC4=CC(=O)C=C[C@]4(C)[C@@]3(F)[C@@H](O)C[C@]2(C)[C@@]1(O)C(=O)CCl", "N"),
]

###

Tested on: expanded OPCs
Test: cells
Conditions: Rattus norvegicus, 72 h, read-out: 10 µM (% DMSO), alamarBlue viability, NCC library compound at 10 µM, sheet "All Tox data"
Item-by-item account of viability at 10 µM

# compound, test target, viability at 10 µM
measured = [
    ("CCCCN1CCCC1CNC(=O)c1cc(C#N)c2ccccc2c1OC (stereo not shown) [Nafadotride]", "expanded OPCs", "49.6%"),
    ("CN1[C@@H](CC(=O)c2ccccc2)CCC[C@H]1C[C@H](O)c1ccccc1 [Lobeline]", "expanded OPCs", "64.3%"),
    ("CCCN1C[C@H](CSC)C[C@@H]2c3cccc4[nH]cc(c34)C[C@H]21 [Pergolide]", "expanded OPCs", "41%"),
    ("OCCN1CCN(CCCN2c3ccccc3Sc3ccc(C(F)(F)F)cc32)CC1 [Fluphenazine, reference compound]", "expanded OPCs", "9.6%"),
]

###

System: expanded OPCs
Assay: cells
Conditions: alamarBlue viability of expanded OPCs, compound at 0.1 µM, relative to DMSO control
Item-by-item account of 0.1 µM (% DMSO)

# molecule, 0.1 µM (% DMSO)
rows = [
    ("CC(C)NCC(O)COc1ccc(CC(N)=O)cc1 (centres unmarked) [Atenolol]", 90.5),
    ("CCc1cc(C(N)=S)ccn1 [Ethionamide]", 89.6),
    ("COc1ccccc1OCC(O)COC(N)=O (centres unmarked) [Methocarbamol]", 89.9),
    ("O=C1CC2(CCCC2)CC(=O)N1CCCCN1CCN(c2ncccn2)CC1 [Buspirone]", 98.1),
    ("CN1CCN(C(=O)O[C@H]2c3nccnc3C(=O)N2c2ccc(Cl)cn2)CC1 [Eszopiclone]", 103.0),
]

###

Test system: expanded OPCs
Experiment: cells
Details: Rattus norvegicus, 72 h, read-out: 10 µM (% DMSO), alamarBlue viability of expanded OPCs, compound at 10 µM, sheet All Tox data
recorded metric: viability at 10 µM (%)

# compound, test target, measured value
records = [
    ("CC(C)c1ccc2oc3nc(N)c(C(=O)O)cc3c(=O)c2c1 [Amlexanox]", "expanded OPCs", 91.9),
    ("CCN1CCC[C@H]1CNC(=O)c1c(O)c(Cl)cc(Cl)c1OC [Raclopride]", "expanded OPCs", 89.9),
    ("O=c1[nH]c(=O)n(C2CCCO2)cc1F (stereo not drawn) [Tegafur]", "expanded OPCs", 99.3),
    ("O=C1c2c(O)cc(O)cc2OC(c2ccc(O)c(O)c2)C1O (stereo not drawn) [Taxifolin]", "expanded OPCs", 88.7),
    ("CC(C)OC(=O)CCC/C=C\\C[C@@H]1[C@@H](CC[C@@H](O)CCc2ccccc2)[C@H](O)C[C@@H]1O [Latanoprost]", "expanded OPCs", 81.4),
    ("CCOC(=O)C1=C(C)NC(C)=C(C(=O)OC)C1c1cccc([N+](=O)[O-])c1 (stereo not drawn) [Nitrendipine]", "expanded OPCs", 35.6),
    ("O=C1[C@H]2CCCC[C@H]2C(=O)N1CCCCN1CCN(c2nsc3ccccc23)CC1 [Perospirone, reference compound]", "expanded OPCs", 132),
    ("COCc1c(C(C)C)nc(C(C)C)c(/C=C/[C@@H](O)C[C@@H](O)CC(=O)O)c1-c1ccc(F)cc1 [Cerivastatin]", "expanded OPCs", 11.5),
    ("c1cncc([C@@H]2CCCN2)c1 [Nornicotine]", "expanded OPCs", 98.4),
]
